# test details: in vivo
# condition set: rat, in vivo, Fa (absolute bioavailability)
Peptide text beside a SMILES is read from it. * marks the point of attachment. X1 = CC(=O)N[C@H]1C(*)O[C@H](CO)[C@@H](O)[C@@H]1O
measure name: bioavailability
Entry format: amount then unit.

Name the recorded bioavailability of the item CC(=O)N[C@H]1C(OC[C@H](NC(=O)[C@@H](NC(=O)[C@H](Cc2ccc(O)cc2)NC(=O)[C@@H](NC(=O)[C@H](CCC(N)=O)NC(=O)CN)[C@@H](C)OC2O[C@H](CO)[C@@H](O)[C@H](O)[C@H]2NC(C)=O)[C@@H](C)O)C(=O)NCC(=O)O)O[C@H](CO)[C@@H](O)[C@@H]1O (stereo partly shown) [SIPI-G9, GQT(Glc)YTS(Glc)G] (H-GQT(X1)YTS(X1)G-OH) in your answer.
79.2%
